system: HIV-1 CXCR4-tropic in human PBMC, supernatant RT activity; test: antiviral activity, X4 HIV-1 in human PBMC – cell-based, set 2, dose response (AID 504563)
Measured IC50 accompanies every entry in the list below.
quantity measured: IC50

| structure as smiles | result |
| --- | --- |
| COc1ccccc1Cn1c(O)cc2nn(-c3nc4ccccc4s3)c(=O)c-2c1C | 5.55 µM |
| Cc1c2c(=O)n(-c3nc4ccccc4s3)nc-2cc(O)n1Cc1cccs1 | 1.83 µM |
| Cc1c2c(=O)n(-c3nc4ccccc4s3)nc-2cc(O)n1CCc1cccs1 | 3.77 µM |
| Cc1c2c(=O)n(-c3nc4ccccc4s3)nc-2cc(O)n1CCc1ccc(O)cc1 | 1.85 µM |
| Cc1c2c(=O)n(-c3nc4ccccc4s3)nc-2cc(O)n1Cc1cccnc1 | 1.51 µM |
| Cc1c2c(=O)n(-c3nc4ccccc4s3)nc-2cc(O)n1Cc1ccccc1 | 3.21 µM |
| Cc1c2c(=O)n(-c3nc4ccccc4s3)nc-2cc(O)n1Cc1ccccc1Cl | 7.26 µM |
| Cc1c2c(=O)n(-c3nc4ccccc4s3)nc-2cc(O)n1CCC(C)C | 5.25 µM |
| Cc1c2c(=O)n(-c3nc4ccccc4s3)nc-2cc(O)n1Cc1ccc(F)cc1 | 3.98 µM |
| Cc1c2c(=O)n(-c3nc4ccccc4s3)nc-2cc(O)n1Cc1ccncc1 | 1.99 µM |
| COc1ccc(CCn2c(O)cc3nn(-c4nc5ccccc5s4)c(=O)c-3c2C)cc1 | 12.6 µM |
| Cc1c2c(=O)n(-c3nc4ccccc4s3)nc-2cc(O)n1C1CC1 | 0.76 µM |
| COc1ccc(Cn2c(O)cc3nn(-c4nc5ccccc5s4)c(=O)c-3c2C)cc1 | 2.86 µM |

Values were extracted from PubChem BioAssay AID504563.
